// pIC50 lookup, one value per entry
- System: HIV-1
- RECORDED_CONDITIONS: read-out: IC50 (50% inhibition of virus replication); monocyte/macrophage, HIV-1, p24 ELISA
pIC50: −log10 of the molar value.

{"columns": ["COMPOUND", "EXPERIMENTAL_TARGET", "pIC50"],
 "data": [
  ["CCCCCc1cc(O)cc(O)c1 [Olivitol]", "HIV-1", 4.20],
  ["Nc1ccn([C@H]2CC[C@@H](CO)O2)c(=O)n1 [DdC, reference compound]", "HIV-1", 8.55]
]}

---

- ASSAY_COMMENT: XTT viability (TC50) in PBMC assay
- RECORDED_CONDITIONS: human, PHA-blasted PBMCs

{"columns": ["QUERY_SMILES", "RELATION_SIGN", "CC50 at 7 days, µM"],
 "data": [
  ["COc1cc(C(C)(C)CCCC(C)C)cc(OC)c1O", "=", 50.9],
  ["CC(C)CCCC(C)(C)c1cc(O)cc(O)c1", "=", 44.6],
  ["Cc1cc(O)cc(O)c1", ">", 200],
  ["COc1cc(OC)cc(C(C)(C)CCCC(C)C)c1", ">", 200],
  ["COc1cc(O)cc(C(C)(C)CCCC(C)C)c1", "=", 46.4]
]}

---

- System: HIV-1
- ASSAY_COMMENT: microbe, parasite or virus in culture
- RECORDED_CONDITIONS: Human immunodeficiency virus 1, PBMC, 168 h, read-out: IC50 (50% inhibition of virus replication)
PARAMETER_MEASURED: IC50

{"columns": ["COMPOUND", "PARAMETER_MEASURED", "RESULT_VALUE"],
 "data": [
  ["COc1cc(OC)cc(C(C)(C)CCCC(C)C)c1", "IC50", "> 200 µM"],
  ["C=C(C)[C@@H]1CCC(C)=C[C@H]1c1c(O)cc(CCCCC)cc1O [Cannabidiol, reference compound]", "IC50", "1.52 µg/mL"],
  ["CCCCCc1cc(O)c2c(c1)OC(C)(C)c1ccc(C)cc1-2", "IC50", "6.91 µg/mL"],
  ["Cc1cc(O)cc(O)c1", "IC50", "> 200 µM"]
]}
